Organism: Homo sapiens
ASSAY_PROCEDURE: Inhibition of His-tagged full length Hsp90/GST-tagged Cdc37 middle domain (unknown origin) interaction at 50 uM after 1 hr by TR-FRET assay relative to control

>  <SUBSTANCE_SMILES>
CC1=C(O)C(=O)C=C2C1=CC=C1[C@@]2(C)CC[C@@]2(C)[C@@H]3C[C@](C)(C(=O)NCCN(C)C)CC[C@]3(C)CC[C@]12C

>  <inhibition, %>
93.6

$$$$
>  <SUBSTANCE_SMILES>
CCCOC(=O)[C@]1(C)CC[C@]2(C)CC[C@]3(C)C4=CC=C5C(=CC(=O)C(O)=C5C)[C@]4(C)CC[C@@]3(C)[C@@H]2C1

>  <inhibition, %>
44.9

$$$$
>  <SUBSTANCE_SMILES>
CC1=C(O)C(=O)C=C2C1=CC=C1[C@@]2(C)CC[C@@]2(C)[C@@H]3C[C@](C)(C(=O)N4CCCCC4)CC[C@]3(C)CC[C@]12C

>  <inhibition, %>
54.8

$$$$
>  <SUBSTANCE_SMILES>
CC1=C(O)C(=O)C=C2C1=CC=C1[C@@]2(C)CC[C@@]2(C)[C@@H]3C[C@](C)(C(=O)NCCN4CCN(C)CC4)CC[C@]3(C)CC[C@]12C

>  <inhibition, %>
96.9

$$$$
>  <SUBSTANCE_SMILES>
CC1=C(O)C(=O)C=C2C1=CC=C1[C@@]2(C)CC[C@@]2(C)[C@@H]3C[C@](C)(C(=O)OC(C)C)CC[C@]3(C)CC[C@]12C

>  <inhibition, %>
51.5

$$$$
>  <SUBSTANCE_SMILES>
CCNC(=O)[C@]1(C)CC[C@]2(C)CC[C@]3(C)C4=CC=C5C(=CC(=O)C(O)=C5C)[C@]4(C)CC[C@@]3(C)[C@@H]2C1

>  <inhibition, %>
69

$$$$
>  <SUBSTANCE_SMILES>
CC1=C(O)C(=O)C=C2C1=CC=C1[C@@]2(C)CC[C@@]2(C)[C@@H]3C[C@](C)(C(=O)NCCN4CCOCC4)CC[C@]3(C)CC[C@]12C

>  <inhibition, %>
77.2

$$$$
>  <SUBSTANCE_SMILES>
CCCNC(=O)[C@]1(C)CC[C@]2(C)CC[C@]3(C)C4=CC=C5C(=CC(=O)C(O)=C5C)[C@]4(C)CC[C@@]3(C)[C@@H]2C1

>  <inhibition, %>
60

$$$$
>  <SUBSTANCE_SMILES>
CC1=C(O)C(=O)C=C2C1=CC=C1[C@@]2(C)CC[C@@]2(C)[C@@H]3C[C@](C)(C(=O)NCCN(C(C)C)C(C)C)CC[C@]3(C)CC[C@]12C

>  <inhibition, %>
81.6

$$$$
>  <SUBSTANCE_SMILES>
CC1=C(O)C(=O)C=C2C1=CC=C1[C@@]2(C)CC[C@@]2(C)[C@@H]3C[C@](C)(C(=O)NCCN4CCCC4)CC[C@]3(C)CC[C@]12C

>  <inhibition, %>
89.2

$$$$
>  <SUBSTANCE_SMILES>
CC1=C(O)C(=O)C=C2C1=CC=C1[C@@]2(C)CC[C@@]2(C)[C@@H]3C[C@](C)(C(=O)NCCN4CCCCC4)CC[C@]3(C)CC[C@]12C

>  <inhibition, %>
75.7

$$$$
>  <SUBSTANCE_SMILES>
CCOC(=O)[C@]1(C)CC[C@]2(C)CC[C@]3(C)C4=CC=C5C(=CC(=O)C(O)=C5C)[C@]4(C)CC[C@@]3(C)[C@@H]2C1

>  <inhibition, %>
54.8

$$$$
>  <SUBSTANCE_SMILES>
CC(=O)NCCNC(=O)[C@]1(C)CC[C@]2(C)CC[C@]3(C)C4=CC=C5C(=CC(=O)C(O)=C5C)[C@]4(C)CC[C@@]3(C)[C@@H]2C1

>  <inhibition, %>
70.5

$$$$

---

Recorded Papp, one value per entry.
ASSAY_PROCEDURE: Permeability of the compound at pH 7.4 by PAMPA-based pION assay
Assay type: ADME
MEASUREMENT_CONDITIONS: read-out: permeability
PROPERTY_MEASURED: Papp (×10⁻⁶ cm/s)

>  <SUBSTANCE_SMILES>
CC1=C(O)C(=O)C=C2C1=CC=C1[C@@]2(C)CC[C@@]2(C)[C@@H]3C[C@](C)(C(=O)NCCN4CCCC4)CC[C@]3(C)CC[C@]12C

>  <PROPERTY_MEASURED>
Papp

>  <UNIT_OF_MEASURE>
×10⁻⁶ cm/s

>  <VALUE_OBSERVED>
23

$$$$
>  <SUBSTANCE_SMILES>
CC1=C(O)C(=O)C=C2C1=CC=C1[C@@]2(C)CC[C@@]2(C)[C@@H]3C[C@](C)(C(=O)NCCN(C(C)C)C(C)C)CC[C@]3(C)CC[C@]12C

>  <PROPERTY_MEASURED>
Papp

>  <UNIT_OF_MEASURE>
×10⁻⁶ cm/s

>  <VALUE_OBSERVED>
35.2

$$$$
>  <SUBSTANCE_SMILES>
CC1=C(O)C(=O)C=C2C1=CC=C1[C@@]2(C)CC[C@@]2(C)[C@@H]3C[C@](C)(C(=O)NCCN(C)C)CC[C@]3(C)CC[C@]12C

>  <PROPERTY_MEASURED>
Papp

>  <UNIT_OF_MEASURE>
×10⁻⁶ cm/s

>  <VALUE_OBSERVED>
45

$$$$

---

ASSAY_PROCEDURE: Permeability of the compound at pH 7.4 by PAMPA-based pION assay
Format: ADME
MEASUREMENT_CONDITIONS: read-out: permeability
Field: label. Allowed values: class 1 (Papp < 10 ×10⁻⁶ cm/s) or class 0 (Papp >= 10 ×10⁻⁶ cm/s).

>  <SUBSTANCE_SMILES>
CC1=C(O)C(=O)C=C2C1=CC=C1[C@@]2(C)CC[C@@]2(C)[C@@H]3C[C@](C)(C(=O)NCCN4CCCCC4)CC[C@]3(C)CC[C@]12C

>  <CLASS>
class 0

$$$$
>  <SUBSTANCE_SMILES>
CCN(CC)CCNC(=O)[C@]1(C)CC[C@]2(C)CC[C@]3(C)C4=CC=C5C(=CC(=O)C(O)=C5C)[C@]4(C)CC[C@@]3(C)[C@@H]2C1

>  <CLASS>
class 0

$$$$
>  <SUBSTANCE_SMILES>
CC1=C(O)C(=O)C=C2C1=CC=C1[C@@]2(C)CC[C@@]2(C)[C@@H]3C[C@](C)(C(=O)NCCN4CCOCC4)CC[C@]3(C)CC[C@]12C

>  <CLASS>
class 0

$$$$
>  <SUBSTANCE_SMILES>
CC1=C(O)C(=O)C=C2C1=CC=C1[C@@]2(C)CC[C@@]2(C)[C@@H]3C[C@](C)(C(=O)O)CC[C@]3(C)CC[C@]12C

>  <CLASS>
class 0

$$$$
>  <SUBSTANCE_SMILES>
CC1=C(O)C(=O)C=C2C1=CC=C1[C@@]2(C)CC[C@@]2(C)[C@@H]3C[C@](C)(C(=O)NCCCn4ccnc4)CC[C@]3(C)CC[C@]12C

>  <CLASS>
class 1

$$$$
>  <SUBSTANCE_SMILES>
CC1=C(O)C(=O)C=C2C1=CC=C1[C@@]2(C)CC[C@@]2(C)[C@@H]3C[C@](C)(C(=O)NCCN4CCN(C)CC4)CC[C@]3(C)CC[C@]12C

>  <CLASS>
class 0

$$$$

---

Organism: Homo sapiens
ASSAY_PROCEDURE: Inhibition of His-tagged full length Hsp90/GST-tagged Cdc37 middle domain (unknown origin) interaction at 50 uM after 1 hr by TR-FRET assay relative to control
Recorded inhibition, one value per entry.

>  <COMPOUND>
CC1=C(O)C(=O)C=C2C1=CC=C1[C@@]2(C)CC[C@@]2(C)[C@@H]3C[C@](C)(C(=O)OCC(C)C)CC[C@]3(C)CC[C@]12C

>  <inhibition / %>
28.4

$$$$
>  <COMPOUND>
CC1=C(O)C(=O)C=C2C1=CC=C1[C@@]2(C)CC[C@@]2(C)[C@@H]3C[C@](C)(C(=O)O)CC[C@]3(C)CC[C@]12C

>  <inhibition / %>
91.8

$$$$
>  <COMPOUND>
CC1=C(O)C(=O)C=C2C1=CC=C1[C@@]2(C)CC[C@@]2(C)[C@@H]3C[C@](C)(C(=O)NCCCn4ccnc4)CC[C@]3(C)CC[C@]12C

>  <inhibition / %>
71.7

$$$$
>  <COMPOUND>
COC(=O)[C@]1(C)CC[C@]2(C)CC[C@]3(C)C4=CC=C5C(=CC(=O)C(O)=C5C)[C@]4(C)CC[C@@]3(C)[C@@H]2C1

>  <inhibition / %>
60.5

$$$$
>  <COMPOUND>
CCN(CC)CCNC(=O)[C@]1(C)CC[C@]2(C)CC[C@]3(C)C4=CC=C5C(=CC(=O)C(O)=C5C)[C@]4(C)CC[C@@]3(C)[C@@H]2C1

>  <inhibition / %>
94.5

$$$$
>  <COMPOUND>
CC1=C(O)C(=O)C=C2C1=CC=C1[C@@]2(C)CC[C@@]2(C)[C@@H]3C[C@](C)(C(=O)N4CCCC(C)C4)CC[C@]3(C)CC[C@]12C (stereo partly specified)

>  <inhibition / %>
47.9

$$$$
>  <COMPOUND>
CNC(=O)[C@]1(C)CC[C@]2(C)CC[C@]3(C)C4=CC=C5C(=CC(=O)C(O)=C5C)[C@]4(C)CC[C@@]3(C)[C@@H]2C1

>  <inhibition / %>
69.2

$$$$
>  <COMPOUND>
CC1=C(O)C(=O)C=C2C1=CC=C1[C@@]2(C)CC[C@@]2(C)[C@@H]3C[C@](C)(C(=O)N4CCCC4)CC[C@]3(C)CC[C@]12C

>  <inhibition / %>
56.4

$$$$
>  <COMPOUND>
CC1=C(O)C(=O)C=C2C1=CC=C1[C@@]2(C)CC[C@@]2(C)[C@@H]3C[C@](C)(C(=O)N(C)C)CC[C@]3(C)CC[C@]12C

>  <inhibition / %>
60.6

$$$$
>  <COMPOUND>
CC1=C(O)C(=O)C=C2C1=CC=C1[C@@]2(C)CC[C@@]2(C)[C@@H]3C[C@](C)(C(=O)NC(C)C)CC[C@]3(C)CC[C@]12C

>  <inhibition / %>
60

$$$$
>  <COMPOUND>
CC1=C(O)C(=O)C=C2C1=CC=C1[C@@]2(C)CC[C@@]2(C)[C@@H]3C[C@](C)(C(=O)NCCS(C)(=O)=O)CC[C@]3(C)CC[C@]12C

>  <inhibition / %>
69.8

$$$$
